# System: 156681-154-R-J1 tumor spheroid viability
# protocolDetails: Anticancer human tumor 156681-154-R-J1 patient-derived melanoma cell line growth inhibition; active = viability on the fitted dose curve at most 10% of control; inactive = the rest
# conditionParameters: second compound 0.0003 µM; first compound 10 µM; spheroids with HUVEC and MSC
# output must be one of Yes = active, No = inactive

Example entries and their recorded answers appear below.
>  <compound>
COc1cc(C)[nH]c(=O)c1CN1CCc2c(Cl)cc(C(OC)C3COC3)c(Cl)c2C1=O (stereo unspecified) + COc1cc2c(cc1O)CCNC21CSC2c3c(OC(C)=O)c(C)c4c(c3C(COC1=O)N1C(O)C3Cc5cc(C)c(OC)c(O)c5C(C21)N3C)OCO4

>  <assignedLabel>
No

$$$$
>  <compound>
COc1ccc([C@@H](O)c2cc(-c3ncnc4cc(N5CCOCC5)ccc34)c(F)cc2Cl)nn1 + COc1cc2c(cc1O)CCNC21CSC2c3c(OC(C)=O)c(C)c4c(c3C(COC1=O)N1C(O)C3Cc5cc(C)c(OC)c(O)c5C(C21)N3C)OCO4

>  <assignedLabel>
Yes

$$$$
>  <compound>
CC1COCCN1c1cc(-c2ccnn2C)c2ccnc(-c3ccn[nH]3)c2n1 (stereo unspecified) + COc1cc2c(cc1O)CCNC21CSC2c3c(OC(C)=O)c(C)c4c(c3C(COC1=O)N1C(O)C3Cc5cc(C)c(OC)c(O)c5C(C21)N3C)OCO4

>  <assignedLabel>
No

$$$$
>  <compound>
Cc1cc(C)c(CNC(=O)c2cc(-c3ccc(CN4CCOCC4)cc3)cc3c2cnn3C2CCCC2)c(=O)[nH]1 + COc1cc2c(cc1O)CCNC21CSC2c3c(OC(C)=O)c(C)c4c(c3C(COC1=O)N1C(O)C3Cc5cc(C)c(OC)c(O)c5C(C21)N3C)OCO4

>  <assignedLabel>
No

$$$$

Q: Would you mind telling me which call this test gave [2H]c1nc(C)nc([2H])c1-c1cc(NC[C@@H](C)c2cccc3c(C(=O)NC)ccnc23)ncn1 + COc1cc2c(cc1O)CCNC21CSC2c3c(OC(C)=O)c(C)c4c(c3C(COC1=O)N1C(O)C3Cc5cc(C)c(OC)c(O)c5C(C21)N3C)OCO4 ?
Result: No

Q: Proceed to CC(C)n1c(=O)n(C)c2cnc3cc(F)c(-c4ccc(OCCCN5CCCCC5)nc4)cc3c21 + COc1cc2c(cc1O)CCNC21CSC2c3c(OC(C)=O)c(C)c4c(c3C(COC1=O)N1C(O)C3Cc5cc(C)c(OC)c(O)c5C(C21)N3C)OCO4
Result: No

----------
# Tested on: 156681-154-R-J1 tumor spheroid viability
# protocolDetails: Anticancer human tumor 156681-154-R-J1 cell line growth inhibition;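 note: spheroids exposed to compounds for 7 days before readout; percent of vehicle control viability where 100% = DMSO-treated spheroids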
# conditionParameters: second compound 31.6 µM; first compound 0.0316 µM; stronger effect = lower value; spheroids with HUVEC and MSC
outcomeMeasure: viability, T/C (%)
Report only the number, with the unit % understood.

Please review the following examples before continuing.
>  <compound>
Cc1cc(C)c(CNC(=O)c2cc(-c3ccc(CN4CCOCC4)cc3)cc3c2cnn3C2CCCC2)c(=O)[nH]1 + Cn1nnc2c(C(N)=O)ncn2c1=O

>  <unitSpec>
%

>  <viability, T/C>
74.2

$$$$
>  <compound>
COc1cc(C)[nH]c(=O)c1CN1CCc2c(Cl)cc(C(OC)C3COC3)c(Cl)c2C1=O (stereo unspecified) + Cn1nnc2c(C(N)=O)ncn2c1=O

>  <unitSpec>
%

>  <viability, T/C>
70.2

$$$$

Q: Lookup: viability, T/C / 156681-154-R-J1 tumor spheroid viability / COc1ccc([C@@H](O)c2cc(-c3ncnc4cc(N5CCOCC5)ccc34)c(F)cc2Cl)nn1 + Cn1nnc2c(C(N)=O)ncn2c1=O
Result: 60

Q: Proceed to CC1COCCN1c1cc(-c2ccnn2C)c2ccnc(-c3ccn[nH]3)c2n1 (stereo unspecified) + Cn1nnc2c(C(N)=O)ncn2c1=O
Result: 38

Q: Proceed to [2H]c1nc(C)nc([2H])c1-c1cc(NC[C@@H](C)c2cccc3c(C(=O)NC)ccnc23)ncn1 + Cn1nnc2c(C(N)=O)ncn2c1=O
Result: 54.9

Q: Proceed to CC(C)n1c(=O)n(C)c2cnc3cc(F)c(-c4ccc(OCCCN5CCCCC5)nc4)cc3c21 + Cn1nnc2c(C(N)=O)ncn2c1=O
Result: 47.2

The measurements presented in this section are drawn from PubChem BioAssay AID1845195.
